System: MDA-MB-435 melanoma
Assay: NCI-60 one-dose screen, 48 h
Details: 10 µM unless noted
About 83,000 compounds went through this panel and 20% of them were active in at least one assay; those are over-represented in the sample as a whole. The source made the active and inactive calls. Rule for the calls: active = growth percent below 10; inactive = the rest.
Mark one answer only. Choices: T for active, F for inactive

smiles-text	label-value
O=C(CSc1nc2ccccc2c(=O)n1-c1ccccc1)Nc1ccc(S(=O)(=O)Nc2nccs2)cc1	F
COc1cc2oc(-c3cccc(NC(=O)c4cccc([N+](=O)[O-])c4)c3)cc(=O)c2c(OC)c1OC	F
O=C1C(N2CCN(c3ccccc3)CC2)=C(Cl)C(=O)c2ncccc21	T

What did the test return for O=[N+]([O-])c1ccc(NC(=S)NNC(=S)Nc2ccc(Br)cc2)cc1 ?
F

What did the test return for O=C1/C(=C/C=C/c2ccco2)SC(=S)N1Cc1ccccc1 ?
F

What did the test return for CCOC(=O)C(=O)Nc1ccc2c(ccn2C(=O)c2cccc(F)c2)c1 ?
F

* * *

Tested on: LOX IMVI melanoma
Test: NCI-60 one-dose screen, 48 h (100 = growth as untreated, 0 = no growth, -100 = all killed)
Details: 10 µM unless noted
This is part of a sample that, as a whole, favours compounds with a hit. Of some 83,000 tested, about 20% had one in any assay.
Classification field: 1.0 = growth at or over 40%; 0.0 = growth under 40%.

compound	label-value
Cc1[nH]c(C(=O)Nc2ccccc2OCc2cccc(C(=O)NC3CCCNC3)c2)c(Cl)c1Cl (stereo not drawn)	0.0
CNC(=O)c1cc(-n2ccc3cc(NC(=O)Nc4ccc(N5CCN(C)CC5)c(C(F)(F)F)c4)ccc32)ccn1	0.0

In plain terms: is recorded growth at least 40% for Brc1ccc(-c2cc(-c3ccc4c(c3)OC=CO4)n[nH]2)s1 ?
1.0

In plain terms: is recorded growth at least 40% for Cc1ccc([C@H]2c3[nH]c4ccccc4c3C[C@H]3C(=O)N(CCCCCCC(=O)NO)CC(=O)N23)s1 ?
0.0

* * *

Tested on: NCI-H23 lung
Assay: NCI-60 one-dose screen, 48 h (100 = growth as untreated, 0 = no growth, -100 = all killed)
Conditions: 10 µM unless noted
This is part of a sample that, as a whole, favours compounds with a hit. Of some 83,000 tested, about 20% had one in any assay.
A collection of molecules and their measured growth
Output spec: scalar in %, unitless text.

In [3]: df
Out[3]:
                                smiles_text  parameter  reading
0  CC(=C(c1ccc(OCCN2CCCC2)cc1)c1ccc(OCCN2CCCC2)cc1)c1ccc(Cl)cc1     growth     60.7

Tested on NCI-H23 lung: Clc1ccc2[nH]cc(-c3nn4cc(-c5ccncc5)nc4s3)c2c1 . Observed growth: 43.1

Tested on NCI-H23 lung: CCNC(=O)Oc1ccc(/C(=C(/C)c2ccc(Cl)cc2)c2ccc(OCCN3CCCCCC3)cc2)cc1 . Observed growth: 22.1

Tested on NCI-H23 lung: C/C(=N\NC(N)=S)c1nnn(-c2ccc([N+](=O)[O-])cc2)c1C . Observed growth: 95.4

Tested on NCI-H23 lung: C[C@]12CC[C@H]3[C@@H](CC=C4C[C@@H](O)CC[C@@]43C)[C@@H]1CC[C@@H]2[C@](C)(O)CCc1cccnc1 . Observed growth: 52.5

Tested on NCI-H23 lung: CN(C)c1cccc2c(S(=O)(=O)Nc3cccc(-c4csc(NC(=O)CCCCCN5CCN(CCO)CC5)n4)c3)cccc12 . Observed growth: 81.3

Tested on NCI-H23 lung: O=C(N/N=C\c1ccc(F)cc1)c1ccc2nc(-c3ccc(Br)cc3)[nH]c2c1 . Observed growth: 0.752

Tested on NCI-H23 lung: CC1(C)CC[C@]2(C(=O)NCCCCCCN(CCCN)CCCN)CC[C@]3(C)C(=CC[C@@H]4[C@@]5(C)CC[C@H](O)C(C)(C)[C@@H]5CC[C@]43C)[C@@H]2C1 . Observed growth: 105

* * *

A collection of molecules and their measured growth
Test system: SF-539 CNS
Assay: NCI-60 one-dose screen, 48 h (100 = growth as untreated, 0 = no growth, -100 = all killed)
Conditions: 10 µM unless noted
This is part of a sample that, as a whole, favours compounds with a hit. Of some 83,000 tested, about 20% had one in any assay.
Output spec: scalar in %, unitless text.

Look over these answered cases.
>>> df
                                smiles_text  system_tested  reading
0  CCNC(=O)Oc1ccc(/C(=C(/C)c2ccc(OC)cc2)c2ccc(OCCN3CCCCCC3)cc2)cc1     SF-539 CNS     18.4
1  CC(C)Sc1nc(-c2ccccc2)c(C#N)c(N2CCOCC2)n1     SF-539 CNS     50.2
2  Cc1ccc2c(n1)C(=O)C(Cl)=C(Nc1cccc(C(=O)OC(C)(C)C)c1)C2=O     SF-539 CNS      105
3  COc1ccc(C(C)=C(c2ccc(OCCN(C)C)cc2)c2ccc(OCCN(C)C)cc2)cc1     SF-539 CNS    -79.4

Could you now look at the following molecule, please?
For O=C(O)c1ccc(-n2c(=O)n(-c3cccc(C(F)(F)F)c3)c(=O)c3cc(-c4ccc(F)cc4F)ccc32)cc1 the molecule record lists growth as 17.8

* * *

Test system: UACC-257 melanoma
Assay: NCI-60 one-dose screen, 48 h (100 = growth as untreated, 0 = no growth, -100 = all killed)
Settings: 10 µM unless noted
The panel holds about 83,000 compounds, 20% with a hit somewhere; the sample as a whole holds those more often.
Classification field: yes = growth at or over 60%; no = growth under 60%.

>>> print(df.to_string())
                                smiles_text      system_tested  label_value
0  C=C(C)[C@@H]1CC[C@]2(C(=O)NC3CCCCC3)CC[C@]3(C)[C@H](CC[C@@H]4[C@@]5(C)CC[C@H](N)C(C)(C)[C@@H]5CC[C@]43C)[C@@H]12  UACC-257 melanoma          yes
1  COc1ccc2[nH]cc(-c3nc(N)nnc3-c3cn(C)c4ccc(Br)cc34)c2c1  UACC-257 melanoma           no
2  CN1CCN(Cc2ccc(NC(=O)c3cncc(C#Cc4cnc5ccc(NCCO)nn45)c3)cc2C(F)(F)F)CC1  UACC-257 melanoma           no
3  NC(=O)n1c(=O)n(-c2cccc(C(F)(F)F)c2)c(=O)c2cc(-c3ccc(F)cc3F)ccc21  UACC-257 melanoma           no

Now consider a different compound.
In plain terms: is recorded growth at least 60% for CC(C)NC(=O)c1cc(-c2ccc(NC(=O)Nc3ccc(F)c(C(F)(F)F)c3)cc2)nc2cccnc12 ?
yes

* * *

Test system: SN12C renal
Assay: NCI-60 one-dose screen, 48 h (100 = growth as untreated, 0 = no growth, -100 = all killed)
Settings: 10 µM unless noted
The panel holds about 83,000 compounds, 20% with a hit somewhere; the sample as a whole holds those more often.
parameter: growth (%)
Output spec: scalar in %, unitless text.

molecule	units-text	growth
Brc1cccc(-c2cc(-c3ccc4c(c3)OC=CO4)[nH]n2)c1	%	59.3
O=C1[C@@H]2Cc3c([nH]c4ccccc34)[C@H](c3ccc(Br)cc3)N2C(=O)CN1C1CCN(Cc2c(Cl)cccc2Cl)CC1	%	92.5
Clc1ccc2[nH]cc(-c3nn4cc(-c5cccnc5)nc4s3)c2c1	%	96.6
O=C1[C@H]2Cc3c([nH]c4ccccc34)[C@H](c3ccc(Cl)cc3)N2C(=O)CN1C1CCN(CC2CCCCC2)CC1	%	69.7
OCC(Nc1ncnc2ccc(-c3cnc4cnccn34)cc12)c1ccccc1 (centres undefined)	%	80.7

Tested on SN12C renal: COc1ccc(NC(=O)CCCCCCNC(=O)C(O)(O)C(F)(F)F)cc1 . Observed growth: 59.9

Tested on SN12C renal: CC(C)NC(=O)c1cc(-c2ccc(NC(=O)Nc3ccc(F)cc3)cc2)nc2cccnc12 . Observed growth: 103

Tested on SN12C renal: COc1cc2oc(-c3cccc(NC(=O)[C@@H](N)C(C)C)c3)cc(=O)c2c(OC)c1OC . Observed growth: 101

Tested on SN12C renal: COc1ccc([C@@H]2C(=O)N(c3cc(OC)c(OC)c(OC)c3)[C@H]2c2ccc(OC)c(O)c2)cc1 . Observed growth: 27.3

Tested on SN12C renal: O=C(CSc1nnc(-c2cccs2)n1-c1ccccc1)Nc1ccccc1 . Observed growth: 83.5

Tested on SN12C renal: CCc1cc2c(cc1Cl)nc1c(=O)[nH]c(=O)nc-1n2CCOCC(C)C . Observed growth: 57.4

Tested on SN12C renal: COc1ccc(/C(=N\N=C(N)N)c2ccc(Cl)cc2)cc1OC . Observed growth: 70.8

Tested on SN12C renal: Cc1nc(/N=C(N)/N=C(\N)c2cccc(Br)c2)sc1C . Observed growth: 47.3

Tested on SN12C renal: CCN(CC)c1ccc(/C=N/NC(=O)c2ccc(NS(C)(=O)=O)cc2)c(O)c1 . Observed growth: 31.4

Tested on SN12C renal: CCCNNC(=O)c1ccc(-c2ccc(NC(=O)CCCCCCC(=O)N[C@H](C(=O)N3C[C@H](O)C[C@H]3C(=O)N[C@@H](C)c3ccc(-c4scnc4C)cc3)C(C)(C)C)cc2)cc1 . Observed growth: 47.8
